- System: Vero E6
- Method Description: cytotoxicity relative to untreated cell control; higher = more toxic
- Test Context: 0.00152416 µM; 72 h; assay detail: uninfected
Where a name gives a salt, the structure may show the parent alone.
Below, each of the compounds is paired with its reported cytotoxicity value.
Measurement Type: cytotoxicity

                                   compound  measurement_type  recorded_value
0  O=c1nc(NO)ccn1[C@@H]1O[C@H](CO)[C@@H](O)[C@H]1O      cytotoxicity          -19.1%
1  N=C(N)Nc1ccc(C(=O)Oc2ccc3cc(C(=N)N)ccc3c2)cc1 [nafamostat mesylate]      cytotoxicity          -4.85%
2               O=c1c2ccccc2[se]n1-c1ccccc1      cytotoxicity          -4.85%
3  CCc1c2c(nc3ccc(O)cc13)-c1cc3c(c(=O)n1C2)COC(=O)[C@]3(O)CC      cytotoxicity          -8.98%
4  CCS(=O)(=O)N1CC(CC#N)(n2cc(-c3ncnc4[nH]ccc34)cn2)C1      cytotoxicity          -17.5%
